experiment: Determination of drug solubility in aqueous and organic solvent; type: physicochemical; details: thermodynamic from solid; Table 3B; water; drug added to 50 mg/mL; read-out: Solubility Water

[
  {
    "Compound": "CC(C)(C)NC[C@@H](COc1nsnc1N1CCOCC1)OC(=O)CCCCCCCCC(=O)O[C@@H](CNC(C)(C)C)COc1nsnc1N1CCOCC1.O=C(O)/C=C\\C(=O)O [Compound 75-1, Timolol-Sebacic Acid-Timolol Maleate]",
    "solubility": "< 1000 µg/mL"
  },
  {
    "Compound": "CC/C=C\\C/C=C\\C/C=C\\C/C=C\\C/C=C\\C/C=C\\CCC(=O)O[C@H](COc1nsnc1N1CCOCC1)CN(C(C)=O)C(C)(C)C",
    "solubility": "< 1000 µg/mL"
  },
  {
    "Compound": "CC/C=C\\C/C=C\\C/C=C\\C/C=C\\C/C=C\\C/C=C\\CCC(=O)O[C@@H](CNC(C)(C)C)COc1nsnc1N1CCOCC1.O=C(O)/C=C\\C(=O)O",
    "solubility": "< 1000 µg/mL"
  },
  {
    "Compound": "CC(=O)N(C[C@@H](COc1nsnc1N1CCOCC1)OC(=O)[C@H](C)OC(=O)[C@H](C)O)C(C)(C)C",
    "solubility": "< 6300 µg/mL"
  },
  {
    "Compound": "COc1cccc(CN(CCO)C(=O)Nc2ccc(-c3cn[nH]c3)cc2OCCN2CCCC2)c1 [RKI-H-1y, reference compound]",
    "solubility": "< 1000 µg/mL"
  }
]

* * *

experiment: Determination of drug solubility in aqueous and organic solvent; type: physicochemical; settings: thermodynamic from solid; Table 3A; water; drug added to 50 mg/mL; read-out: Solubility Water;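 also: solid drug suspended at 50 mg/mL nominal in each solvent, vortexed and sonicated, then dissolved concentration in filtered supernatant quantified by HPLC against a calibration curve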
Recorded solubility by entry

[
  {
    "Compound": "CC(=O)O[C@@H](CNC(C)(C)C)COc1nsnc1N1CCOCC1.O=C(O)/C=C\\C(=O)O",
    "solubility": "< 1000 µg/mL"
  },
  {
    "Compound": "CC(=O)OC(C)C(=O)OC(C)C(=O)OC(C)C(=O)OC(C)C(=O)N1CCN(C(C)=O)C1=Nc1ccc2nccnc2c1Br (stereo not drawn) [Compound 115-1, Brimonidine-acetyl PLA(n=4)-N-Acetate]",
    "solubility": "< 200 µg/mL"
  },
  {
    "Compound": "CC(=O)O[C@@H](C)C(=O)O[C@@H](C)C(=O)O[C@@H](C)C(=O)O[C@@H](C)C(=O)N1CCN=C1Nc1ccc2nccnc2c1Br",
    "solubility": "< 1000 µg/mL"
  },
  {
    "Compound": "CCN[C@H]1CN(CCCOC)S(=O)(=O)c2sc(S(N)(=O)=O)cc21 [Brinzolamide, reference compound]",
    "solubility": "< 1000 µg/mL"
  },
  {
    "Compound": "CC(C)(C)NC[C@@H](COc1nsnc1N1CCOCC1)OC(=O)OC(C)(C)C",
    "solubility": "< 1000 µg/mL"
  },
  {
    "Compound": "CCCCCCCCCCCCCCCCCC(=O)O[C@@H](C)C(=O)O[C@@H](C)C(=O)O[C@@H](C)C(=O)O[C@@H](C)C(=O)NS(=O)(=O)c1cc2c(s1)S(=O)(=O)N(CCCOC)CC2NCC (stereo partly drawn)",
    "solubility": "< 1000 µg/mL"
  }
]
